biological target: Cynomolgus monkey IL-1β (cynomolgus monkey); assay: Biacore low-res, mAb captured, cyno IL-1β 117 nM, 25C
Sequence (P48090 117-269 limits assumed): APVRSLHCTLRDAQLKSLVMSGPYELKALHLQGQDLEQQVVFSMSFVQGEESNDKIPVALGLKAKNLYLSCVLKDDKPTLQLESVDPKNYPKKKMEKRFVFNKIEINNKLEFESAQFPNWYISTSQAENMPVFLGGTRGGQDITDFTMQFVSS
Let's look at some binders and their measured kon.
Answer in M⁻¹ s⁻¹, number only, no unit symbol.

// below: answered binders
9.31.1 (antibody, human IgG4, V domains shown) VH: QVQLVESGGGLVKPGGSLRLSCAASGFTFSDYYMSWIRQAPGKGLEWVSYIRSSGSTIYYADSVKGRFTISRDNAKNSLYLQMNSLRAEDTAVYYCARTPYSGRYHWYFDLWGRGTLVTVS VL: SYELTQPPSVSVSPGQTARITCSGDALPIKYAYWYQHKSGQAPVLVIYEDSKRPSGIPERFSGSSSGTMATLTISGAQVEDEADYYCYSTDSSGNHRVFGGGTKLTVL ... 300000
4.20.1 (antibody, human IgG4, V domains shown) VH: QVQLVESGGGVVQPGRSLRLSCAASGFTFSNYGMNWVRQAPGKGLEWVAVIWYDGNNKSEADSVKGRFTISRDNSKNTLYLQMNSLRAEDTAVYYCARDSRSGPFDYWGQGTLVTVSS VL: EIVLTQSPDFQSVTPKEKVTITCRASQSIGSSLHWYQQKPDQSPKLLIKFASQSFSGVPSRISGSGSGTDFTLTINSLEAEDAATYYCHQSSSLPFTFGPGTKVDIK ... 800000
5.36.1 (antibody, human IgG4, V domains shown) VH: QVQLQQSGPGLVKPSQTLSLTCAISGDSVSSNSAAWNWIRQSPSRGLEWLGRTYYRSKWYNDYAVSVKSRITINPDTSKNQFSLQLNSVTPEDTAVYYCAREEQQLVRYYYYYGMDVWGQGTTVTVS VL: DIVMTQTPLSLSVTPGQPASISCKSSQSLLHSDGRTYLYWYLQRPGQPPQLLIYEASYRFSGVPDRFSGSGSGTDFTLKISRVEAEDVGIYYCMQSIQLPRTFGQGTRLEIK ... 210000

[ask] Could you share which kon value was measured for 8.50.1 (antibody, human IgG4, V domains shown) VH: QVQLQESGPGLVKPSETLSLTCTVSGGSISSDYWSWIRQPAGKGLEWIGRFYNSGRTNYRPSLKSRITMSVDTSKNQFSLKLSSVTAADTAVYYCARDMYSGRGNWYFDLWGRGTLVTVS VL: SYELTQPPSVSVSPGQTARITCSGDALPKKYAYWYQQKSGQAPVLVIYEDSKRPSGIPERFSGSSSGTMATLTISGAQVEDEADYYCYSTDSSDNHRVFGGGTKLTVL ?
[reply] 470000

[ask] Which kon value is on record for 5.5.1 (antibody, IgG4, V domains shown) VH: QVQLVESGGGVVQPGRSLRLSCAASGFTFSSYGMHWVRQAPGKGLEWVAVIWYDGDNKYYADSVQGRFTISRDNSKNTLYLQMNSLRPEDTAVYYCARERSSSWYFDYWGQGTLVTVSS VL: QSALTQPASVSGSPGQSITISCTGTSSDVGSYNLVSWYQQHPGKAPKLMIYEVSKRPSGISNRFSGSKSGNTASLTISGLQAEDEADYYCCSYAGSSTWVFGGGTKLTVL ?
[reply] 240000

These data points were gathered from patent US20070065439A1.
